Parameter fraction ligated: see the listing below.
B1: minF1; a variant is named by its letters at N, in order (parent)
chain: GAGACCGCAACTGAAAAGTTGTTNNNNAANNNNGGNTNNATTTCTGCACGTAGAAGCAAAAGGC

Variants of: B1
Experiment: fraction ligated after 30 min (ligated reads / total reads); higher = more ligase activity
Settings: with F1*subA RNA substrate (template-directed ligation), 42 °C
Answer using only a numeral; do not append any unit.

Mutation String	Endpoint	Endpoint Value
ATCAAGGAGTG G34T	fraction ligated	0.00633

Q) Given the entry AAGATGGAGTA , report its measured fraction ligated.
A) 0.00181

Q) Bench note: what fraction ligated did ATCAAGGTTGA A28G show?
A) 0.00202

Q) Can you share its fraction ligated? I mean this variant: ACAGGGAGTGA A29T
A) 0.00347

Q) Suppose we examine the variant AGAAGATGTGA A29T ; what fraction ligated value has been reported?
A) 0.00448

Q) Name the recorded fraction ligated for ATCAGGATTGA A29T .
A) 0.00634

Q) Give the measured fraction ligated of AAAAGGATTGA A29T .
A) 0.00197
